Values were extracted from PubChem BioAssay (NCI).

# Test system: CCRF-CEM leukemia
# experiment: NCI tumour cell line growth inhibition, 48 h
Consider the following compounds; for each one, report its TGI.

Field: example entries. Status: answers known.
| compound | target system | TGI |
| --- | --- | --- |
| CC1(C)OCN(c2ccc(S(N)(=O)=O)cc2)Cn2c1nc1ccccc12 | CCRF-CEM leukemia | > 100 µM |
| NC(=O)c1nnsc1NN=O | CCRF-CEM leukemia | > 100 µM |
| COc1cccc2nc3ccccc3nc12 | CCRF-CEM leukemia | > 100 µM |
| CCN1CCN(c2nc3ccccc3nc2C(=O)c2ccc(OC)c(OC)c2)CC1 | CCRF-CEM leukemia | 46 µM |
| C/C(=N\n1c(O)c(C#N)cc(C#N)c1=O)c1ccncc1 | CCRF-CEM leukemia | > 100 µM |

Turning now to a further record.
Prompt line: Dear colleague, I am looking for the recorded TGI of the following compound: CC(=O)[CH-]C(=O)c1ccccc1.CC(=O)[CH-]C(=O)c1ccccc1.CC(C)CCC[C@H](C)C1CCC2[C@@H]3CC=C4C[C@@H]([O-])CC[C@]4(C)C3CC[C@@]21C.CC(C)CCC[C@H](C)C1CCC2[C@@H]3CC=C4C[C@@H]([O-])CC[C@]4(C)C3CC[C@@]21C.Cl.[Ti+4] (stereo partly specified)
Response line: > 25 µM

====

# Test system: DU-145 prostate
# experiment: NCI tumour cell line growth inhibition, 48 h
readout: GI50

Give one value of GI50 per listed compound.
1. Cc1ccc(/C=C/c2c(C(=O)/C=C/c3ccc(Cl)cc3)c(C)nc3ccccc23)cc1
2. CCN(CC)CCN1C(=O)C2C3C(=O)CC(C)(CC3C)C2C1=O (stereo not given)
3. Clc1ccc2ncc(-c3cccc(NC4CNC4)n3)n2c1
4. O=C(COc1ccc(OCC(=O)N2C(=O)CN(c3ccccc3)C2=S)cc1)N1C(=O)CN(c2ccccc2)C1=S
5. O=C(Cc1csc2nc(-c3ccc(Cl)cc3)cn12)N/N=C/c1ccccc1O

Response line:
1.74 µM
> 100 µM
4.58 µM
> 25 µM
2.72 µM

====

# System: OVCAR-4 ovarian
# experiment: NCI tumour cell line growth inhibition, 48 h
Consider the following molecules; for each one, report its GI50.

Field: example entries. Status: answers known.
| molecule | GI50 |
| --- | --- |
| O=C(COc1ccc(OCC(=O)N2C(=O)CN(c3ccccc3)C2=S)cc1)N1C(=O)CN(c2ccccc2)C1=S | > 25 µM |
| COc1ccccc1/C=C/C1=C(C)CCC(c2ccccc2OC)C1C (stereo not given) | 1.37 µM |
| CC1C(=O)c2cc3c(cc2CCN(C)Cc2c1ccc1c2OCO1)OCO3 (stereo not given) | 44.4 µg/mL |
| NC(Cc1c[nH]c2ccc(F)cc12)C(=O)O (stereo not given) | 953 µM |
| N#Cc1ccccc1C#C/C=C\C#CC#C/C=C\C#Cc1ccccc1C#N | 19.1 µM |
| CCN(CC)CCC(CNc1ccnc2cc(Cl)ccc12)c1ccccc1 (stereo not given) | 5.89 µM |
| CCN(CC)c1ccc2nc3c4ccccc4c(=O)cc-3n(-c3ccccc3)c2c1 | 1.2 µM |
| COc1ccc(-c2nn(-c3ccc(NC(=O)c4cc(Cl)cc(Cl)c4)cc3)cc2-c2ccncc2)cc1Cl | > 100 µM |
| COc1cccc(C2=C(c3cn(C)c4cc(F)ccc34)C(=O)NC2=O)c1 | > 8.37 µM |

Turning now to a further record.
Prompt line: Dear colleague, I am looking for the recorded GI50 of the following molecule: Clc1ccc(Nc2nc(Nc3ccccc3)nc(Nc3ccc(-c4cc(-c5ccc(Cl)cc5)on4)cc3)n2)cc1
Response line: 15.4 µM

====

Consider the following molecules; for each one, report its TGI.
# Test system: HCT-15 colon
# experiment: NCI tumour cell line growth inhibition, 48 h

Field: example entries. Status: answers known.
| compound | TGI |
| --- | --- |
| CC(C)(C)NC(=O)[C@H]1CC[C@H]2[C@@H]3CC[C@H]4NC(=O)C=C[C@]4(C)[C@H]3CC[C@]12C | > 100 µM |
| COc1cc(OC)c2c(=O)c3c([N+](=O)[O-])cccc3n(C)c2c1 | > 100 µM |
| Cc1nc(N)c(-c2ccccc2)s1 | > 62.1 µM |
| O=S(=O)(O)c1ccc2c(N=Nc3ccc(N=Nc4ccccc4)cc3)c(O)c(S(=O)(=O)O)cc2c1 | > 100 µM |

Turning now to a further record.
Prompt line: Dear colleague, I am looking for the recorded TGI of the following molecule: COc1ccc(Cn2cc3c(c2)-c2oncc2CC3)cc1OC
Response line: > 50 µM

====

# Test system: OVCAR-5 ovarian
# experiment: NCI tumour cell line growth inhibition, 48 h
readout: TGI

Field: example entries. Status: answers known.
| compound | experimental value |
| --- | --- |
| Cc1cc(S(=O)(=O)Nc2n[nH]c(Nc3ccc4ccccc4c3)n2)c(S)cc1Cl | > 100 µM |
| Cc1cc(C)c2c(c1)CC1(Cc3ccc(C)c(C)c3C1=O)C2=O (stereo unspecified) | > 100 µM |
| O=C1C=CC(=Nc2cccc3c(N=C4C=CC(=O)O4)cccc23)O1 | > 100 µM |
| Nc1cc(S(=O)(=O)O)cc2ccc(S(=O)(=O)O)cc12 | > 100 µM |
| COC1=C(OC)C(=O)C(Sc2ccc3ccccc3c2)=CC1=O | 37.2 µM |

Give one value of TGI per listed compound.
1. CC(=O)[CH-]C(=O)c1ccccc1.CC(=O)[CH-]C(=O)c1ccccc1.CC(C)CCC[C@H](C)C1CCC2[C@@H]3CC=C4C[C@@H]([O-])CC[C@]4(C)C3CC[C@@]21C.CC(C)CCC[C@H](C)C1CCC2[C@@H]3CC=C4C[C@@H]([O-])CC[C@]4(C)C3CC[C@@]21C.Cl.[Ti+4] (stereo partly specified)
2. O=C(O)c1c(Cl)c(Cl)c(Cl)c(Cl)c1C(=O)Nc1ccc2cn[nH]c2c1
3. COc1ccc(NC(=O)CC(=O)NNC(Sc2ccccc2)c2cc(N=Nc3ccc(Br)cc3)ccc2O)cc1 (stereo unspecified)
4. COC1CC(C)([N+](=O)[O-])C(O)C(C)O1 (stereo unspecified)
5. Cc1ccc(NC(=O)CSc2nnc(Cc3ccccc3)o2)cc1
6. O=C(CCl)Nc1cc(Cl)c(Cl)cc1Cl
7. Clc1ccc(Nc2nc(Nc3ccccc3)nc(Nc3ccc(-c4cc(-c5ccc(Cl)cc5)on4)cc3)n2)cc1

Response line:
1: > 25 µM; 2: > 100 µM; 3: > 10 µM; 4: > 100 µM; 5: > 100 µM; 6: 3.72 µM; 7: 89.1 µM

====

# Test system: MALME-3M melanoma
# experiment: NCI tumour cell line growth inhibition, 48 h
Consider the following compounds; for each one, report its TGI.
One number for each entry, in µM.

| compound | readout | experimental value |
| --- | --- | --- |
| O=C(N/C(=C\c1ccccc1Cl)c1nc2ccccc2[nH]1)c1ccccc1 | TGI | 74.8 |

Give one value of TGI per listed compound.
1. CC1(C)S[C@H](CN)N[C@H]1C(=O)OC(c1ccccc1)c1ccccc1
2. COc1ccc2nc3cc([N+](=O)[O-])ccc3c(NNc3ccccc3)c2c1

Response line:
1. 83.8
2. 43.4

====

Consider the following compounds; for each one, report its TGI.
# Test system: KM12 colon
# experiment: NCI tumour cell line growth inhibition, 48 h

Field: example entries. Status: answers known.
| compound | target system | readout | experimental value |
| --- | --- | --- | --- |
| O=C(Cc1ccc([N+](=O)[O-])c([N+](=O)[O-])c1CC(=O)C(=O)Nc1cc(Cl)ccc1Cl)C(=O)Nc1cc(Cl)ccc1Cl | KM12 colon | TGI | > 100 µM |
| CC(C)[Si]1(C(C)C)OCC2OC(n3c(C(=O)c4ccccc4)cc(=O)[nH]c3=O)CC2O[Si](C(C)C)(C(C)C)O1 (configuration not stated) | KM12 colon | TGI | 8.51 µM |

Give one value of TGI per listed compound.
1. O=C(N/C(=C\c1ccccc1Cl)c1nc2ccccc2[nH]1)c1ccccc1
2. CCN(CC)C(=S)SC1C(=O)NC(=O)NC1=O
3. CCCCC(/C=C\COC1CCCCO1)=C/C(=O)OCC (configuration not stated)
4. COC1[C@H](NC(=O)OC(C)(C)C)C(=O)N1Cc1ccccc1 (some centres not stated)
5. O=C(/C=C1\N=C(c2ccccc2)N(c2nc3c(Cl)cc(Cl)cc3s2)C1=O)/C=C/c1ccccc1
6. CC(=O)Nc1ccc(C(=O)NN2C(=O)C(Cl)C2c2cccc([N+](=O)[O-])c2)cc1 (configuration not stated)
7. COc1ccc(C(=O)O[C@H]2[C@H](O[C@H]3[C@@H](O)COC(O[C@H]4C[C@H]5[C@@H]6CC=C7C[C@@H](O)CC[C@]7(C)[C@H]6CC[C@]5(C)[C@H]4[C@H](C)C(=O)CCC(C)C)[C@@H]3OC(C)=O)OC[C@@H](O)[C@@H]2O)c(C)c1 (some centres not stated)
8. COc1cccc(C=C2N=C(c3ccccc3)N(n3c(-c4ccccc4)nc4ccccc4c3=O)C2=O)c1

Response line:
["> 100 µM", "> 100 µM", "> 100 µM", "> 100 µM", "> 100 µM", "> 100 µM", "21.3 µM", "> 100 µM"]
